# credit: paper PMC8523169

Recorded stoichiometry N for the following proteins
Biological target: the molecule itself
Assay: native MS; proteins buffer exchanged into 200 mM ammonium acetate pH 8.0, alone or mixed in different ratios (two or three components, with or without 50 bp DNA), 10 min on ice
# output: bare number, no unit

protein	observed.property	value.measured
MatP^4E (K71E, Q72E, R75E, and R77E) (domain or fragment, E. coli, UniProt P0A8N0 1-132, looked up, MatP, E. coli, residues 1-132 (MatPΔ18C) with four substitutions; also called MatP K71E, Q72E, R75E, R77E; source: site-directed mutagenesis, purified using the same protocol as MatP) MKYQQLENLESGWKWKYLVKKHREGELITRYIEASAAQEAVDVLLSLENEPVLVNGWIDKHMNPELVNRMEETIEAERKRHFNAEHQHTRKKSIDLEFIVWQRLAGLAQRRGKTLSETIVQLIEDAENKEKY	stoichiometry N	2
MukB short hinge (SH; amino acid residues 667–779) (domain or fragment, E. coli, UniProt P22523 667-779, looked up, MukB, E. coli, residues 667-779: hinge lacking the entire coiled-coil; Monomer/dimer mix at tens of µM by nMS; also called SH-His; SH MukB; source: overexpressed, purified (TALON, HiTrap Q XL, SEC); not shown: His6, C-terminal, kept) GGSEDQRLNALAERFGGVLLSEIYDDVSLEDAPYFSALYGPSRHAIVVPDLSQVTEHLEGLTDCPEDLYLIEGDPQSFDDSVFSVDELEKAVVVKIADRQWRYSRFPEVPLFG	stoichiometry N	2

Moving on to another protein below.
Query: stoichiometry N; subject: MatPΔ18C (1–132), C-terminal 6xHis-tag (domain or fragment, E. coli, UniProt P0A8N0 1-132, looked up, MatP, E. coli, residues 1-132 (deletion of the 18 C-terminal residues); also called MatPΔ18C-His; MatP2; source: overexpressed, purified as previously published (Nolivos et al., 2016) with an added SEC step; not shown: His6, C-terminal, kept) MKYQQLENLESGWKWKYLVKKHREGELITRYIEASAAQEAVDVLLSLENEPVLVNGWIDKHMNPELVNRMKQTIRARRKRHFNAEHQHTRKKSIDLEFIVWQRLAGLAQRRGKTLSETIVQLIEDAENKEKY 2
